# experimental target: T1, human CDH6 on cells (human, UniProt P55285 54-790)
# T1 sequence: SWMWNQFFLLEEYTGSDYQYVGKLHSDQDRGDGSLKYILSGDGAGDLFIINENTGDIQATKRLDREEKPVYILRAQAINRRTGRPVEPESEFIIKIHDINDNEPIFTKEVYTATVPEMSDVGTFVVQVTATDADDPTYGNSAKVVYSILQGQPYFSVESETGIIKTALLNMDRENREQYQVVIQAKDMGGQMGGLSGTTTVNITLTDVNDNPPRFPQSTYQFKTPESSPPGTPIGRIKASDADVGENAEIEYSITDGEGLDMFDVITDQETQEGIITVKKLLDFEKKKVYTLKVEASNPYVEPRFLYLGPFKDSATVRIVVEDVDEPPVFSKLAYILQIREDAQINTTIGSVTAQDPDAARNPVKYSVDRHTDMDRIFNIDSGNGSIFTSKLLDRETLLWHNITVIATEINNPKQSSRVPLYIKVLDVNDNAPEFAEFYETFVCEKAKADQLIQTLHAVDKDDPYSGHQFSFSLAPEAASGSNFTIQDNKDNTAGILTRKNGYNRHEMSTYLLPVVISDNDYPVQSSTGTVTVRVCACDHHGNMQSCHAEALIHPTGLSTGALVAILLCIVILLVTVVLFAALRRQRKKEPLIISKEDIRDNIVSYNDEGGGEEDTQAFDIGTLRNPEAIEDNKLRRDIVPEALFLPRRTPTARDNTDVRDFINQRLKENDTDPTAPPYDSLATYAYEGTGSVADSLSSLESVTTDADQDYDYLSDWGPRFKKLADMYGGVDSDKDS
# protocol summary: cell-based or functional assay
quantity name: percent inhibition at 1.22 nM ADC, JHOS4 cells (%)
Answers are plain numbers, in %.

Study these solved cases before continuing.
{"binder": "NOV0692-SMCC-DM1 (antibody, human IgG1, lambda, V domains shown, SMCC-DM1 on primary amines, sites not stated) VH: QVQLVESGGGLVKPGGSLRLSCAASGFTFSRYWMDWVRQAPGKGLEWVGRIKSKANGGITDYAAPVKGRFTISRDDSKNTLYLQMNSLKTEDTAVYYCARGMTFLGIWGQGTLVTVSS VL: DIELTQPPSVSVSPGQTASITCSGDSIGSKYAQWYQQKPGQAPVLVIYYNSERPSGIPERFSGSNSGNTATLTISGTQAEDEADYYCQSWDGQSTIRVFGGGTKLTVLG", "readout number": 62.3}
{"binder": "NOV0718-SMCC-DM1 (antibody, human IgG1, lambda, V domains shown, SMCC-DM1 on primary amines, sites not stated) VH: QVQLVESGGGLVKPGGSLRLSCAASGFTFNSYALHWVRQAPGKGLEWVGRIKSKTNGGTTDYAAPVKGRFTISRDDSKNTLYLQMNSLKTEDTAVYYCARVDATYSYSGYYYPMDYWGQGTLVTVSS VL: DIELTQPPSVSVSPGQTASITCSGDKIPTYTVHWYQQKPGQAPVLVIYDDNKRPSGIPERFSGSNSGNTATLTISGTQAEDEADYYCQSTASGTVVFGGGTKLTVLG", "readout number": -5.03}
{"binder": "NOV0720-SMCC-DM1 (antibody, human IgG1, lambda, V domains shown, SMCC-DM1 on primary amines, sites not stated) VH: QVQLQQSGPGLVKPSQTLSLTCAISGDSVSSNSAGWNWIRQSPSRGLEWLGRIYYRSKWYNDYAVSVKSRITINPDTSKNQFSLQLNSVTPEDTAVYYCAREKYTVSFYDFFDYWGQGTLVTVSS VL: DIELTQPPSVSVSPGQTASITCSGDNIGSMTAHWYQQKPGQAPVLVIYDKNERPSGIPERFSGSNSGNTATLTISGTQAEDEADYYCQSWDDSYNSVVFGGGTKLTVLG", "readout number": 43.5}

Here is another binder to look at.
## Task State, in one line, measured percent inhibition at 1.22 nM ADC, JHOS4 cells of NOV0713-SMCC-DM1 (antibody, human IgG1, lambda, V domains shown, SMCC-DM1 on primary amines, sites not stated) VH: QVQLQQSGPGLVKPSQTLSLTCAISGDSVSSNSAAWNWIRQSPSRGLEWLGRIYYRSKWYNDYAVSVKSRITINPDTSKNQFSLQLNSVTPEDTAVYYCARGLVGRYGQPYHFDVWGQGTLVTVSS VL: DIELTQPPSVSVSPGQTASITCSGDNLRSYYVHWYQQKPGQAPVLVIYGNNKRPSGIPERFSGSNSGNTATLTISGTQAEDEADYYCGVYTLSSVVFGGGTKLTVLG
## Result -6.22
